src = ChEMBL document CHEMBL2021854

- METHOD SUMMARY: Cytotoxicity against cat CRFK cells assessed as cell viability by colorimetric formazan-based MTS assay
- Parameters: species or system Felis catus
- TEST PARAMETERS: crfk
Each entry below carries its recorded CC50.

# SMILES, CC50
rows = [
    ("CCOC(=O)c1c(C)nc(NCCCNc2ccnc3cc(Cl)ccc23)nc1C", "> 100 µM"),
    ("Cc1nc(NCCCNc2ccnc3cc(Cl)ccc23)nc(-c2cccc([N+](=O)[O-])c2)c1C(=O)OC(C)C", "7.7 µM"),
    ("Cc1nc(NCCCCNc2ccnc3cc(Cl)ccc23)nc(-c2ccccc2[N+](=O)[O-])c1C(=O)OC(C)C", "27.2 µM"),
    ("Cc1nc(NCCNc2ccnc3cc(Cl)ccc23)nc(-c2ccccc2[N+](=O)[O-])c1C(=O)OC(C)C", "> 100 µM"),
    ("CCOC(=O)c1c(C)nc(NCCCCNc2ccnc3cc(Cl)ccc23)nc1C", "14.5 µM"),
    ("CCOC(=O)c1c(C)nc(NCCNc2ccnc3cc(Cl)ccc23)nc1-c1ccccc1", "7.3 µM"),
    ("CCOC(=O)c1c(C)nc(NCCCCNc2ccnc3cc(Cl)ccc23)nc1-c1ccccc1", "13.9 µM"),
    ("CCOC(=O)c1c(C)nc(NCCCNc2ccnc3cc(Cl)ccc23)nc1-c1ccccc1", "15.9 µM"),
]

---

- METHOD SUMMARY: Cytotoxicity against human HEL cells assessed as minimum compound concentration required to causes microscopically detectable alteration of normal cell morphology
- Type: cell-based
Each entry below carries its recorded MCC.
MEASURED METRIC: MCC

# MOLECULE, MEAS VALUE
data = [
    ("Cc1nc(NCCCCNc2ccnc3cc(Cl)ccc23)nc(-c2ccccc2[N+](=O)[O-])c1C(=O)OC(C)C", "20 µM"),
    ("CCOC(=O)c1c(C)nc(NCCCCNc2ccnc3cc(Cl)ccc23)nc1C", "> 20 µM"),
    ("Nc1nc2c(ncn2COCCO)c(=O)[nH]1 [ACYCLOVIR]", "> 250 µM"),
    ("CCOC(=O)c1c(C)nc(NCCCNc2ccnc3cc(Cl)ccc23)nc1C", "≥ 100 µM"),
    ("Nc1ccn(C[C@@H](CO)OCP(=O)(O)O)c(=O)n1 [CIDOFOVIR]", "> 317 µM"),
    ("CCOC(=O)c1c(C)nc(NCCCNc2ccnc3cc(Cl)ccc23)nc1-c1ccccc1", "> 20 µM"),
    ("CCOC(=O)c1c(C)nc(NCCCCNc2ccnc3cc(Cl)ccc23)nc1-c1ccccc1", "> 20 µM"),
    ("Cc1nc(NCCCNc2ccnc3cc(Cl)ccc23)nc(-c2cccc([N+](=O)[O-])c2)c1C(=O)OC(C)C", "20 µM"),
    ("CCOC(=O)c1c(C)nc(NCCNc2ccnc3cc(Cl)ccc23)nc1-c1ccccc1", "20 µM"),
    ("Nc1nc(O)c2ncn(COC(CO)CO)c2n1 [GANCICLOVIR]", "> 100 µM"),
    ("Cc1nc(NCCNc2ccnc3cc(Cl)ccc23)nc(-c2ccccc2[N+](=O)[O-])c1C(=O)OC(C)C", "100 µM"),
    ("O=c1[nH]c(=O)n([C@H]2C[C@H](O)[C@@H](CO)O2)cc1/C=C/Br [BRIVUDINE]", "> 250 µM"),
]
